B1: Gamma-crystallin D, residues 90 to 170; numbered along this chain, P07320 (parent)
chain: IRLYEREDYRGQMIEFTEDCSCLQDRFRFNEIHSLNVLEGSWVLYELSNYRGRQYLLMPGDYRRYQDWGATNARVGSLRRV

Variants of: B1
Assay: abundance fitness (aPCA) (normalised: wild type 0, dead -1); higher = more abundant; growth selection in yeast, the domain comes from the species named
Settings: Homo sapiens
Use criterion met when the recorded abundance fitness is no lower than -0.1; use criterion not met when it is lower.

INSERT INTO measurements (variant_descriptor, assigned_class) VALUES
  ('L44V', 'criterion met'),
  ('F16W', 'criterion met'),
  ('I32S', 'criterion met'),
  ('D25I', 'criterion met'),
  ('G40E', 'criterion met'),
  ('I14M', 'criterion met'),
  ('F29Q', 'criterion met'),
  ('R10D', 'criterion not met');

**Query** Hi team, for Y45R , is the recorded abundance fitness at or above -0.1?
**Result** criterion not met

**Query** Hi team, for I14P , is the recorded abundance fitness at or above -0.1?
**Result** criterion not met

**Query** Hi team, for L35W , is the recorded abundance fitness at or above -0.1?
**Result** criterion not met

**Query** Hi team, for W42S , is the recorded abundance fitness at or above -0.1?
**Result** criterion not met

**Query** Hi team, for L38V , is the recorded abundance fitness at or above -0.1?
**Result** criterion met

**Query** Hi team, for L57W , is the recorded abundance fitness at or above -0.1?
**Result** criterion not met

**Query** Hi team, for R10L , is the recorded abundance fitness at or above -0.1?
**Result** criterion met

meta.source: the Human Domainome abundance scans (Beltran et al. 2025)
